Test system: SF-539 CNS
Experiment: NCI tumour cell line growth inhibition, 48 h
# TGI per entry

Answered examples (3):
> print(dat)
                                   molecule  assay.metric  observed.measurement
1      O=c1[nH]cc(/C=N\Nc2ccccc2)c(=O)[nH]1           TGI              > 100 µM
2  C[C@@H](N)C1CCC(C(=O)Nc2ccncc2)CC1 (some centres not stated)           TGI              > 100 µM
3  C1=Nc2ccc(cc2)N=Cc2ccccc2OCc2cccc(n2)COc2ccccc21           TGI               81.6 µM

Note to self: TGI recorded for c1ccc(CSC2(SCc3ccccc3)CCCC2)cc1 was > 10 µM

Note to self: TGI recorded for O=C1/C=C/[C@@H](O)[C@@H]2C[C@@H](O)C[C@H]2/C=C/CCC[C@H](CCc2ccc(C(F)(F)F)cc2)O1 was > 100 µM

Note to self: TGI recorded for CC1=C(C)CC(C#N)(C#N)C(C#N)(C#N)C1 was > 10 µM

Note to self: TGI recorded for NCCCCCCCCn1c2c(c3ccccc3c1=O)C(=O)c1ccccc1-2 was 8.62 µM

Note to self: TGI recorded for COc1cc(C2SCC(=O)N2Cc2ccccc2)cc(OC)c1OC (configuration not stated) was > 100 µM

Note to self: TGI recorded for COc1cc(OC)c2ssc3c(OC)cc(OC)c4ssc1c2-c43 was > 100 µM

Note to self: TGI recorded for O=C1/C(=C\c2ccc(F)cc2)CN(C(=O)c2ccc([N+](=O)[O-])cc2)C/C1=C\c1ccc(F)cc1 was 10.2 µM

Note to self: TGI recorded for c1ccc(N=C(N2CCOCC2)N(CCN2CCOCC2)c2ccccc2)cc1 was > 100 µM

Note to self: TGI recorded for O=C(O)C1=C(C(=O)Nc2ccccc2)C2C=CC1C2 (configuration not stated) was > 100 µM

Note to self: TGI recorded for COc1cc2c(F)nccc2cc1C(=O)N[C@@H](c1ccc(F)c(Cl)c1)[C@@H]1C[C@@H](O)CN1 was 11.1 µM

Note to self: TGI recorded for Cc1cc2nc3c(C#N)c(-c4ccccc4)/c(=C\Nc4ccc(Cl)cc4)c(=O)n3c2cc1C was > 100 µM

Note to self: TGI recorded for COc1cc(Br)c(CC2(C#N)c3ccccc3C3C(N2C(=O)c2ccccc2)C3(Cl)Cl)cc1OC (configuration not stated) was > 65.5 µM

Note to self: TGI recorded for CS/C(C#N)=C(\C#N)SC was 34.1 µM

Note to self: TGI recorded for Sc1ccc2ccccc2c1CNCc1ccccc1 was 29.3 µM

Note to self: TGI recorded for COc1cccc(Cn2c(-c3nonc3N)nc3ccccc32)c1 was 0.696 µM

Note to self: TGI recorded for C=C[C@]1(O)CCC[C@]2(C)C(=O)CCC12C (some centres not stated) was > 100 µM

----------
System: U251 CNS
Experiment: NCI tumour cell line growth inhibition, 48 h
# TGI per entry

Answered examples (4):
> print(dat)
                                   molecule  observed.measurement
1      Cc1ccc2nc(N/N=C/c3ccc(C)s3)cc(C)c2c1               27.6 µM
2  CN1C(=O)CN2C(Cl)(Cl)C2(c2ccccc2F)c2cc([N+](=O)[O-])ccc21 (stereo not given)              > 100 µM
3  Cc1nnc(N=Nc2c(O)[nH]c3c(Cl)cc(Cl)cc23)n1N              > 100 µM
4                 C=CCCOC(=O)CO[N+](=O)[O-]              > 100 µM

Consider the record given below.
Note to self: TGI recorded for COc1ccccc1/C=C/C(=O)c1c(O)cc2occc2c1OC was > 100 µM
